Test system: HIV with mutations in the HIV protease sequence
Assay: Phenotypic fold resistance to protease inhibitors, protease mutations 84A/84L/84C/54M/54L/54V in a background (Examples 8-13)
Format: cell-based, HIV-1
Details: Table 12, V20160, genotype WT
Measured metric: Fold change in IC50 (fold)
Numbers only, in fold.

* Cc1c(O)cccc1C(=O)N[C@@H](CSc1ccccc1)[C@H](O)CN1C[C@H]2CCCC[C@H]2C[C@H]1C(=O)NC(C)(C)C | 0.7
* CC(C)CN(C[C@@H](O)[C@H](Cc1ccccc1)NC(=O)O[C@H]1CCOC1)S(=O)(=O)c1ccc(N)cc1 | 1.0
* CC(C)(C)NC(=O)[C@@H]1C[C@@H]2CCCC[C@@H]2CN1C[C@@H](O)[C@H](Cc1ccccc1)NC(=O)[C@H](CC(N)=O)NC(=O)c1ccc2ccccc2n1 | 0.9
* CC(C)c1nc(CN(C)C(=O)N[C@H](C(=O)N[C@@H](Cc2ccccc2)C[C@H](O)[C@H](Cc2ccccc2)NC(=O)OCc2cncs2)C(C)C)cs1 | 0.6

Record CC(C)(C)NC(=O)[C@@H]1CN(Cc2cccnc2)CCN1C[C@@H](O)C[C@@H](Cc1ccccc1)C(=O)N[C@H]1c2ccccc2C[C@H]1O . Reported Fold change in IC50: 0.9

----------
Test system: HIV with mutations in the HIV protease sequence
Test: Phenotypic fold resistance to protease inhibitors, protease mutations 84A/84L/84C/54M/54L/54V in a background (Examples 8-13)
Type: cell-based, HIV-1
Details: Table 11 #5, protease genotype 10I + 84V
Measured metric: mean fold increase in resistance
# number then unit; no other words

A selection of reference data follows.
• CC(C)(C)NC(=O)[C@@H]1CN(Cc2cccnc2)CCN1C[C@@H](O)C[C@@H](Cc1ccccc1)C(=O)N[C@H]1c2ccccc2C[C@H]1O = 1.8 fold
• Cc1c(O)cccc1C(=O)N[C@@H](CSc1ccccc1)[C@H](O)CN1C[C@H]2CCCC[C@H]2C[C@H]1C(=O)NC(C)(C)C = 2.0 fold

# per-item lookup of mean fold increase in resistance; items listed below
1. CC(C)c1nc(CN(C)C(=O)N[C@H](C(=O)N[C@@H](Cc2ccccc2)C[C@H](O)[C@H](Cc2ccccc2)NC(=O)OCc2cncs2)C(C)C)cs1
2. CC(C)(C)NC(=O)[C@@H]1C[C@@H]2CCCC[C@@H]2CN1C[C@@H](O)[C@H](Cc1ccccc1)NC(=O)[C@H](CC(N)=O)NC(=O)c1ccc2ccccc2n1
3. CC(C)CN(C[C@@H](O)[C@H](Cc1ccccc1)NC(=O)O[C@H]1CCOC1)S(=O)(=O)c1ccc(N)cc1

1. 6.5 fold
2. 2.7 fold
3. 1.2 fold

----------
Test system: HIV with mutations in the HIV protease sequence
Assay: Phenotypic fold resistance to protease inhibitors, protease mutations 84A/84L/84C/54M/54L/54V in a background (Examples 8-13)
Assay type: cell-based, HIV-1
Settings: Table 12, V19263, genotype 77I
Measured metric: Fold change in IC50 (fold)
One number for each entry, in fold.

A selection of reference data follows.
• Cc1c(O)cccc1C(=O)N[C@@H](CSc1ccccc1)[C@H](O)CN1C[C@H]2CCCC[C@H]2C[C@H]1C(=O)NC(C)(C)C = 0.9
• CC(C)CN(C[C@@H](O)[C@H](Cc1ccccc1)NC(=O)O[C@H]1CCOC1)S(=O)(=O)c1ccc(N)cc1 = 0.6
• CC(C)(C)NC(=O)[C@@H]1CN(Cc2cccnc2)CCN1C[C@@H](O)C[C@@H](Cc1ccccc1)C(=O)N[C@H]1c2ccccc2C[C@H]1O = 0.4

# per-item lookup of Fold change in IC50; items listed below
1. CC(C)(C)NC(=O)[C@@H]1C[C@@H]2CCCC[C@@H]2CN1C[C@@H](O)[C@H](Cc1ccccc1)NC(=O)[C@H](CC(N)=O)NC(=O)c1ccc2ccccc2n1
2. CC(C)c1nc(CN(C)C(=O)N[C@H](C(=O)N[C@@H](Cc2ccccc2)C[C@H](O)[C@H](Cc2ccccc2)NC(=O)OCc2cncs2)C(C)C)cs1

0.3
0.4
